- condition: in water, 313.15 K
property: solubility (mole fraction)
Numbers only.

QUERY: For the compound O=C1NC23NC(=O)NC2(N1)C(=O)NC3=O (stereo unspecified) , report solubility (mole fraction).
RESULT: 0.000313

* * *

- condition: in water, 318.15 K
property: solubility (mole fraction)
Numbers only.

QUERY: Supply measured solubility (mole fraction) of O=C1NC23NC(=O)NC2(N1)C(=O)NC3=O (stereo unspecified) in your reply.
RESULT: 0.000369

* * *

- condition: in methanol, 313.15 K
property: solubility (mole fraction)

QUERY: Give me measured solubility (mole fraction), please, for this compound: O=C1NC23NC(=O)NC2(N1)C(=O)NC3=O (stereo unspecified)
RESULT: 0.00727

* * *

- condition: in n-propanol, 288.15 K
property: solubility (mole fraction)
One number for each entry.

QUERY: Tell me its solubility (mole fraction) given O=C1NC23NC(=O)NC2(N1)C(=O)NC3=O (stereo unspecified) as the entry.
RESULT: 4.65e-05

* * *

- condition: in THF, 293.15 K
property: solubility (mole fraction)
Answers are plain numbers.

QUERY: Assign solubility (mole fraction) to the following record: O=C1NC23NC(=O)NC2(N1)C(=O)NC3=O (stereo unspecified)
RESULT: 0.00121

* * *

- condition: in acetone, 308.15 K
property: solubility (mole fraction)
Give bare numbers.

QUERY: Specify measured solubility (mole fraction) for O=C1NC23NC(=O)NC2(N1)C(=O)NC3=O (stereo unspecified) .
RESULT: 0.00018

* * *

- condition: in n-propanol, 318.15 K
property: solubility (mole fraction)
Give bare numbers.

QUERY: Query solubility (mole fraction) for O=C1NC23NC(=O)NC2(N1)C(=O)NC3=O (stereo unspecified)
RESULT: 0.00019

* * *

- condition: in acetone, 288.15 K
property: solubility (mole fraction)
One number for each entry.

QUERY: For the molecule O=C1NC23NC(=O)NC2(N1)C(=O)NC3=O (stereo unspecified) , give its measured solubility (mole fraction) value.
RESULT: 9.4e-05
